B1: Zinc finger homeobox protein 4, residues 2086 to 2141; numbered along this chain, Q86UP3 (parent)
chain: RPRTRITDDQLKILRAYFDINNSPSEEQIQEMAEKSGLSQKVIKHWFRNTLFKERQ

- Variants of: B1
- Measurement Description: abundance fitness (aPCA) (normalised: wild type 0, dead -1); higher = more abundant; growth selection in yeast, the domain comes from the species named
- Study Conditions: Homo sapiens
abundance fitness values by entry
Endpoint Label: abundance fitness

mutation_name=W46T result=-0.203
mutation_name=I43L result=-0.195
mutation_name=K53C result=-0.201

Cited source for all entries: the Human Domainome abundance scans (Beltran et al. 2025)
